Where these numbers come from: ChEMBL document CHEMBL1201862

Listing of entries alongside the reported GI50.
# System: DLD-1
# experiment: NCI tumour cell line growth inhibition, 48 h
Calls of active or inactive are those of the source. No stated cut-off is given here; in the data, active = GI50 up to about 1.1 µM and inactive = higher.

molecule	GI50
CO/N=C/c1cc(OC)c(OC)c(OC)c1	> 100 µM (inactive)
CC(=O)Oc1ccc(CO)cc1OC(C)=O	> 100 µM (inactive)
CCOC(=O)c1c(C)c(C)n2c1NC(=O)C2	> 100 µM (inactive)
CCC1=CCN(c2cc(C)ccn2)OC1c1ccccc1 (configuration not stated)	34 µM (inactive)
CC1OC(n2cc(F)c(=O)[nH]c2=O)CCC1=O (configuration not stated)	52.5 µM (inactive)
Nc1nc(N)c(CCCCc2ccccc2)c(C=O)n1	20.1 µM (inactive)
Cc1ccc(C(=O)O/N=C2/CCC/C2=C\c2ccccc2)cc1	> 100 µM (inactive)

====

# Tested on: SK-MEL-28
# experiment: NCI tumour cell line growth inhibition, 48 h
Active and inactive are the calls of the source. Rule as the data show it: active = GI50 up to about 1.1 µM and inactive = higher.

compound	assayed.target	GI50
Cc1ccc(-c2c(C#N)c(N)[nH]c(=S)c2C#N)cc1	SK-MEL-28	26.2 µM (inactive)
CCOC(=O)/C=C(\C(=O)OCC)n1cc(C)c(=O)n(Cc2cn(COCCOC(C)=O)nn2)c1=O	SK-MEL-28	10.5 µM (inactive)
N#CCC(=O)N/N=C(\CCN1CCCC1)CC(c1ccccc1)c1c(O)c2ccccc2oc1=O (centres undefined)	SK-MEL-28	> 100 µM (inactive)
CC1(C)OC(=O)C(=Cc2ccc([N+](=O)[O-])s2)C(=O)O1	SK-MEL-28	18.9 µM (inactive)
N#C/C(=C\n1ccc(=O)[nH]c1=S)C(N)=O	SK-MEL-28	> 100 µM (inactive)
COc1cc2c(cc1O)CCN(C)[C@H]2Cc1ccc(Oc2c(O)c(OC)cc3c2C[C@H]2c4c(c(OC)c(OC)c(OC)c4-3)CCN2C)cc1	SK-MEL-28	6.56 µM (inactive)
CCCCCCCCCCCCCCCCCC(=O)NCC(COP(=O)(O)O)OCC (centres undefined)	SK-MEL-28	> 100 µM (inactive)
CC1(C)COC2(OC1)C1=NS(=O)(=O)CC13CCC2C3(C)C (centres undefined)	SK-MEL-28	> 100 µM (inactive)
Cc1nc(C(N)=S)sc1/C(CC(=O)C(=O)Nc1cccc2ccc(O)cc12)=N\NC(=O)c1ccncc1	SK-MEL-28	74.8 µM (inactive)

====

# Test system: T47D
# experiment: NCI tumour cell line growth inhibition, 48 h
Calls of active or inactive are those of the source. Rule as the data show it: active = GI50 up to about 1.1 µM and inactive = higher.
GI50: recorded values

molecule	GI50
CSc1ccc2c(cc1=O)[C@@H](NC(=O)c1ccc(N)cc1)CCc1cc(O)c(O)c(O)c1-2	66.1 µM (inactive)
CN(C)c1nc(Cl)c2c(-c3ccccc3)c(-c3ccccc3)oc2n1	83 µM (inactive)
C/C(=C/CC[C@]1(CO)CC[C@]2(C)[C@H](CC[C@@H]3[C@@]4(C)CC[C@H](OC5OC(CO)C(O)C(O)C5OC5OC(CO)C(O)C(O)C5O)C(C)(C)[C@@H]4CC[C@]32C)[C@H]1O)CO (some centres undefined)	> 100 µM (inactive)
CSc1ccsc1-c1sc(-c2cc(SC)c(-c3sc(-c4cc(SC)c(-c5sccc5SC)s4)cc3SC)s2)cc1SC	28.2 µM (inactive)

====

# System: HCC 2998
# experiment: NCI tumour cell line growth inhibition, 48 h
Active and inactive are the calls of the source. Cut-off read from the data, not from the text of the source: active = GI50 up to about 1.1 µM and inactive = higher.

compound	GI50
CC(=O)OCC1OC(n2c(N)c(C#N)c(C)c(C#N)c2=S)C(OC(C)=O)C(OC(C)=O)C1OC(C)=O (stereo not drawn)	> 100 µM (inactive)
CSC1NC=Nc2c1sc(=S)n2-c1ccccc1 (stereo not drawn)	> 100 µM (inactive)
CCOC(=O)c1cc2ncccc2c2ccccc12	> 100 µM (inactive)

====

Each entry below carries its recorded GI50.
# System: HOP-92
# experiment: NCI tumour cell line growth inhibition, 48 h
Activity calls are given as the source filed them. Cut-off read from the data, not from the text of the source: active = GI50 up to about 1.1 µM and inactive = higher.

compound	GI50
C/C(=C/CC[C@]1(CO)CC[C@]2(C)[C@H](CC[C@@H]3[C@@]4(C)CC[C@H](OC5OC(CO)C(O)C(O)C5OC5OC(CO)C(O)C(O)C5O)C(C)(C)[C@@H]4CC[C@]32C)[C@H]1O)CO (stereo partly specified)	> 100 µM (inactive)
COc1cc2c(cc1OC)C1c3ccccc3CCCN1CC2 (stereo unspecified)	33 µM (inactive)
COc1ccc(-c2nc(N3CCCC3)no2)cc1	48.4 µM (inactive)
Cc1ccc(S(=O)(=O)NNC(=O)c2cc(C)c(C)cc2N)cc1	> 100 µM (inactive)
CSc1nc(NC2OC(COC(C)=O)C(OC(C)=O)C(OC(C)=O)C2OC(C)=O)c2c(n1)OCC2=O (stereo unspecified)	> 100 µM (inactive)
Cc1ccc2c(c1)C(C1Cc3c(C)cccc3C1=O)OC2=O (stereo unspecified)	> 100 µM (inactive)

====

# Tested on: SK-MEL-5
# experiment: NCI tumour cell line growth inhibition, 48 h
Active and inactive are the calls of the source. Cut-off read from the data, not from the text of the source: active = GI50 up to about 1.1 µM and inactive = higher.
Items are presented alongside their recorded GI50.

compound	GI50
C=C1N(S(=O)(=O)c2ccc(C)cc2)C(=O)OCC12CCCC2	25.4 µM (inactive)
N#CCC(=O)N/N=C(\CCN1CCCC1)CC(c1ccccc1)c1c(O)c2ccccc2oc1=O (stereo not drawn)	> 72.1 µM (inactive)
CO/N=C/c1cc(OC)c(OC)c(OC)c1	> 100 µM (inactive)
CCOC(=O)c1[nH]c(COC(C)=O)c2c1CCCCCCCCCC2	> 100 µM (inactive)
CS/C(N)=N/c1cccc2ccccc12	> 10 µM (inactive)
COc1cc2c(cc1O)CCN(C)[C@H]2Cc1ccc(Oc2c(O)c(OC)cc3c2C[C@H]2c4c(c(OC)c(OC)c(OC)c4-3)CCN2C)cc1	2.9 µM (inactive)
C=C=C(CC(CC(=C)Br)(C(=O)OC)C(=O)OC)S(=O)(=O)c1ccccc1	3.11 µM (inactive)
Cc1cccc(C)c1NC(=O)C(=O)C(c1ccccc1Cl)S(=O)(=O)Cc1ccccc1Cl (stereo not drawn)	> 100 µM (inactive)
CN1CCC(C(=O)NNc2ccccc2)CC1	14.4 µM (inactive)
Cc1ccc2c(c1)C(C1Cc3c(C)cccc3C1=O)OC2=O (stereo not drawn)	> 100 µM (inactive)
CN1/C(=C/C(=O)c2ccc(Cl)cc2)Nc2ccccc21	25.5 µM (inactive)
c1csc(-c2ccc(-c3cccc4nsnc34)s2)c1	> 100 µM (inactive)
CCOC(=O)CP(=S)(S)c1ccccc1 (stereo not drawn)	> 100 µM (inactive)
O=c1ccn(-c2ccccn2)c(=O)n1-c1ccccn1	> 100 µM (inactive)
O=[N+]([O-])C1(CO)COC2(OC1)c1ccccc1-c1ccccc12	> 100 µM (inactive)
CCCCC(Sc1cc(Cl)c(C)cc1S(=O)(=O)Nc1nc(N)n[nH]1)C(=O)OC (stereo not drawn)	> 10 µM (inactive)
COc1ccc(C(=O)/C=C2\C(=O)Nc3ccc(Br)cc32)cc1	18.4 µM (inactive)
CC(c1ccc(Br)cc1)C(C(=O)O)C(=O)O (stereo not drawn)	> 100 µM (inactive)
O=c1[nH]ccc2c1ccn2C1CC(O)C(CO)O1 (stereo not drawn)	> 100 µM (inactive)
N#Cc1nc(C2CCC2)oc1N	> 100 µM (inactive)
C[n+]1c(-c2ccccc2)cc2/c(=C\c3ccc([N+](=O)[O-])cc3)c3ccccc3n21	1.95 µM (inactive)
Cc1nn(-c2cc(Cl)ccc2[N+](=O)[O-])c(C)c1Cl	81.7 µM (inactive)
O=C(CSCC(=O)N/N=C\c1ccccc1F)N/N=C\c1ccccc1F	64.1 µM (inactive)

====

# System: SK-MEL-2
# experiment: NCI tumour cell line growth inhibition, 48 h
Calls of active or inactive are those of the source. Rule as the data show it: active = GI50 up to about 1.1 µM and inactive = higher.
This section presents compounds with their documented GI50 values.
endpoint: GI50

compound	obs.value
CN1S(=O)(=O)N(C)P12(N=P(CP(=NP13(N(C)S(=O)(=O)N1C)N(C)S(=O)(=O)N3C)(c1ccccc1)c1ccccc1)(c1ccccc1)c1ccccc1)N(C)S(=O)(=O)N2C	> 100 µM (inactive)
O=C1OC(c2ccc([N+](=O)[O-])cc2)=N/C1=C\c1ccc(Cl)cc1	> 100 µM (inactive)
Fc1ccc(C(OCCN2CCC3CCC(C2)N3C/C=C/c2cccs2)c2ccc(F)cc2)cc1 (stereo not given)	10.7 µM (inactive)
CCOC(=O)NC(C(C(=O)OCC)C(=O)OCC)(C(F)(F)F)C(F)(F)F	> 100 µM (inactive)
O=C1N2CCC[C@H]2CS1(=O)=O	17.6 µM (inactive)
O=c1[nH]c(Nc2nc3ccccc3[nH]2)nc(O)c1Cc1ccccc1	> 100 µM (inactive)
CCOC(=O)N1CCN(Cc2cc(=O)n3cc(C)ccc3n2)CC1	> 100 µM (inactive)
O=C(O)CCc1ccc2c(c1)C(=O)CC2	> 100 µM (inactive)
Clc1ccc(OCc2nnc(COc3ccc(OCc4nnc(COc5ccc(Cl)cc5Cl)o4)c(Cl)c3)o2)c(Cl)c1	33.8 µM (inactive)
CCOC(=O)c1nnsc1NN=C(C)C	> 100 µM (inactive)
CC(=O)Nc1ccc(N2C(=O)CS(=O)(=O)C2c2cccc(Oc3ccccc3)c2)cc1 (stereo not given)	19.2 µM (inactive)
NCC[Se][Se]CCN	7.57 µM (inactive)
CCCCC(Sc1cc(Cl)c(C)cc1S(=O)(=O)Nc1nc(N)n[nH]1)C(=O)OC (stereo not given)	> 10 µM (inactive)
CN1CCC(C(=O)NNc2ccccc2)CC1	9.02 µM (inactive)
Cc1ccc(C2=Nc3ccccc3NC(=O)C2)cc1	> 100 µM (inactive)
c1coc(CNc2[nH]cnc3nncc2-3)c1	> 100 µM (inactive)
C[C@@H]1C[C@H]2[C@@H]3CCC4=CC(=O)C=C[C@]4(C)[C@@]3(F)[C@@H](O)C[C@]2(C)[C@@]1(O)C(=O)CO [DEXAMETHASONE]	> 100 µM (inactive)
O=c1[nH]nc2c3n[nH]c(=O)n3c3ccccc3n12	> 100 µM (inactive)
C=CCCOC(=O)CO[N+](=O)[O-]	> 100 µM (inactive)
C[n+]1c(-c2ccccc2)cc2/c(=C\c3ccc([N+](=O)[O-])cc3)c3ccccc3n21	3.01 µM (inactive)
CC(C)(Br)C(=O)N1CCN(C(c2ccccc2)c2ccccc2)CC1	> 100 µM (inactive)
COC1CC(n2ccc(=O)[nH]c2=O)OC1CO (stereo not given)	> 100 µM (inactive)
CCOC(=O)[C@H](Cc1ccccc1)NC(=O)c1nc[nH]c1[N+](=O)[O-]	> 100 µM (inactive)
COc1nc(N)c(/N=C/C(OC(C)=O)C(OC(C)=O)C(COC(C)=O)OC(C)=O)c(=O)n1C (stereo not given)	> 100 µM (inactive)
CO/N=C/c1cc(OC)c(OC)c(OC)c1	> 100 µM (inactive)
COc1cc2c3c4c1OCc1c5c(cc(c1-4)CC3[N+](C)(C)CC2)OCO5 (stereo not given)	> 100 µM (inactive)
CC(C)=CCC/C(C)=C/CC/C(C)=C/CCC1(C)CCC([C@H](C)C(=O)O)OO1.CC1=C(CC/C(C)=C/CCC2(C)CCC([C@H](C)C(=O)O)OO2)C(C)(C)CCC1 (stereo not given in full)	> 100 µM (inactive)
CSc1c(C#N)c(S)n(-c2ccc(Cl)cc2)c(=O)c1C#N	> 100 µM (inactive)
C[n+]1ccccc1/C1=c2\cc/c([nH]2)=C(\c2cccc[n+]2C)C2=N/C(=C(/c3cccc[n+]3C)C3C=CC(N3)/C(c3cccc[n+]3C)=C3/C=CC1=N3)C=C2	> 100 µM (inactive)
Cc1ccc(S(=O)(=O)OC2C3OC(C)(C)OC3OC2C(c2cc(O)c3c(c2O)C(=O)c2ccccc2C3=O)c2cc(O)c3c(c2O)C(=O)c2ccccc2C3=O)cc1 (stereo not given)	> 10 µM (inactive)
CC(=O)SC(C[N+](=O)[O-])c1ccc2c(c1)OCO2 (stereo not given)	6.19 µM (inactive)
Nc1nc(N)c(CCCCc2ccccc2)c(C=O)n1	20 µM (inactive)
C=C1C(=O)O[C@@H]2C[C@@]3(C)CC(=O)C=C(C)[C@@H]3C[C@H]12	12.9 µM (inactive)
O=C1N=C2N=C(c3ccc(Cl)cc3)N(c3ccc(Cl)cc3)N2Sc2ccccc21	> 100 µM (inactive)
Cc1nn(-c2cc(Cl)ccc2[N+](=O)[O-])c(C)c1Cl	> 100 µM (inactive)
N#CC1=C(N)OC2=C(CCCc3ccccc32)C1c1ccc([N+](=O)[O-])cc1 (stereo not given)	17.9 µM (inactive)
COc1ccc(/C=C2\Cc3ccccc3C2=O)cc1OC	> 100 µM (inactive)
Cc1nn(-c2ccccc2)c2c1C(c1cc3ccccc3nc1Cl)NC(=O)N2 (stereo not given)	14.3 µM (inactive)
N=C(N)Nc1ccc(CC(N)C(=O)O)cc1 (stereo not given)	> 12.5 µM (inactive)
COC(OC)c1cc2c(cc1C(=O)[C@@]13CCC[C@@H]1NC(=O)O3)OCO2	> 100 µM (inactive)
